- system-name: JAK3 enzyme (Homo sapiens (Human), UniProt P52333)
- Sequence (P52333 whole entry, species assumed): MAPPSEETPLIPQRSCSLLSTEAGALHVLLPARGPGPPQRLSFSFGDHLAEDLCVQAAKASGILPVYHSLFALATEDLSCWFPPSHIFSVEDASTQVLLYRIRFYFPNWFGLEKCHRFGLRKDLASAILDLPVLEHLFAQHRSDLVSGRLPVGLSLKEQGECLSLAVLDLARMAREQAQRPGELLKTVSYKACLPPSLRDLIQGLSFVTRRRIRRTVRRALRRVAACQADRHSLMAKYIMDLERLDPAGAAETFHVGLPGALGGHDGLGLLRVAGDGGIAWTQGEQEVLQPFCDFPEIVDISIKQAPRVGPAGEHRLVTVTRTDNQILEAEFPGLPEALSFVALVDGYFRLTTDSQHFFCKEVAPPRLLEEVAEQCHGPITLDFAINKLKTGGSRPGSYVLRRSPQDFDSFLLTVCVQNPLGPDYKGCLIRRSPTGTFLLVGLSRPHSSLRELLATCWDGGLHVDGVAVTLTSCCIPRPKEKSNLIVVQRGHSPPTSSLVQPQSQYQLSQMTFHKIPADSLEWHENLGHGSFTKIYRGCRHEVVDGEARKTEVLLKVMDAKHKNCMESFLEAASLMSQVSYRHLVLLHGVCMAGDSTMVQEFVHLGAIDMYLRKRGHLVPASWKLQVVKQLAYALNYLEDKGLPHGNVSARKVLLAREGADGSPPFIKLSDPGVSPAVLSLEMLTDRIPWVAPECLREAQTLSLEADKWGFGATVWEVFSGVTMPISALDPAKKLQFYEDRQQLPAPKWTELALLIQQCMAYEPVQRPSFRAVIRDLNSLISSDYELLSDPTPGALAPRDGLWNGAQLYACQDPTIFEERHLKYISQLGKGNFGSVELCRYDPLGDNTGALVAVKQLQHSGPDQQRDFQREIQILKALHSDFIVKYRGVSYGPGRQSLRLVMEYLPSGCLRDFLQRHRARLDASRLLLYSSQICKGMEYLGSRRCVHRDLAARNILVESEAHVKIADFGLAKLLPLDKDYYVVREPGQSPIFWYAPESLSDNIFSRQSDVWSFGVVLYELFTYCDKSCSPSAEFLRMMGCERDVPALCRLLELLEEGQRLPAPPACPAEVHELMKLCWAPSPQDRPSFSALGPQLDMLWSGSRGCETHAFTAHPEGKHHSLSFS
- protocol: JAK Caliper Enzyme Assay at 4 μM or 1 mM ATP
- Format: biochemical
- assay-conditions: read-out: JAK3 (4 μM ATP) IC50; 4 μM ATP
- Protocol: JAK Caliper Enzyme Assay at […] or 1 mM ATP Test article was solubilized in dimethyl sulfoxide (DMSO) to a stock concentration of 30 mM. An 11-point half log dilution series was created in DMSO with a top concentration of 600 μM. […] The compound plates were diluted 1 to 60 resulting in a top final assay compound concentration of 10 μM and a 2% DMSO concentration. Test article and assay controls were added to a 384-well plate. […]
recorded-endpoint: log10(IC50) (log10 of the value in nM)
Scale type: logarithmic (base 10). Underlying IC50 unit: nM.

{"columns": ["compound", "system-name", "recorded-endpoint", "numeric-readout"],
 "data": [
  ["C=CC(=O)N1CCC(Oc2cnc3[nH]cc(-c4ccc(F)nc4)c3n2)CC1 [Example 226]", "JAK3 enzyme (Homo sapiens (Human), UniProt P52333)", "log10(IC50)", 0.00],
  ["C=CC(=O)N(C)C1CCN(c2cnc3[nH]cc(C(=O)NC(C)C)c3n2)CC1 [Example 169]", "JAK3 enzyme (Homo sapiens (Human), UniProt P52333)", "log10(IC50)", 1.63],
  ["C=CC(=O)N1CCC[C@@H](Nc2ncnc3[nH]cc(/C=C/c4ccoc4)c23)C1 [Example 38]", "JAK3 enzyme (Homo sapiens (Human), UniProt P52333)", "log10(IC50)", 3.51],
  ["C=CC(=O)N1C[C@H](Nc2ncnc3[nH]ccc23)C[C@@H](OC)C1 [Example 77]", "JAK3 enzyme (Homo sapiens (Human), UniProt P52333)", "log10(IC50)", 1.19],
  ["C=CC(=O)N1CCC(Nc2cnc3[nH]cc(C(=O)N4CCCC4)c3n2)CC1 [Example 287]", "JAK3 enzyme (Homo sapiens (Human), UniProt P52333)", "log10(IC50)", 0.62],
  ["C=CC(=O)N1CCN(c2cnc3[nH]cc(C(=O)NC(C)C)c3n2)C[C@H]1CC [Example 311]", "JAK3 enzyme (Homo sapiens (Human), UniProt P52333)", "log10(IC50)", 0.08]
]}

Indicate the recorded log10(IC50) value for this compound: C=CC(=O)N1CCC(Nc2cnc3[nH]cc(C(=O)N[C@H](CC)CC#N)c3n2)CC1 [Example 263]
-0.70

Check the records and state log10(IC50) for C=CC(=O)N1CCC(Nc2cnc3[nH]cc(C(=O)NCC(C)C)c3n2)CC1 [Example 272]
-0.70
